Assay: Nitroreductase enzyme assay with SN 23862 as substrate (HPLC)
Type: biochemical
Details: Table 2, recombinant B. subtilis enzymes, crude lysates

molecule	SN23862 (activity)
YdeQ: nitroreductase from B. subtilis, SEQ ID NO: 8 (protein, listed as Bacillus subtilis) MDHMKTLVLVVHPNIESSRINKKWKEAVLSEPDVTVHDLYEKYRDQPIDVEFEQQQLLAHDRIVFQFPLYWYSSPPLLKQWFDEVFTFGWAHGPGGNKLKGKEWVTAMSIGSPEHSYQAGGYNLFSISELTKPFQASAHLVGMTYLPSFAEYRANTISDQEIAESANRYVKHITNIELNPKVRLQRYLKQLESVDLT	inactive
YrkL: nitroreductase from B. subtilis, SEQ ID NO: 6 (protein, listed as Bacillus subtilis) MKTLVIVIHPNLETSVVNKTWMNRLKQEKDITVHDLYGEYPNFIIDVEKEQQLLLDHERIVFQFPMYWYSSPALLKQWEDDVLTHGWAYGTGGTKLHGKELLLAISSGAQESDYQAGGEYNITISELIRPFQVTANYIGMRFLPAFTQYGTLHLSKEDVKNSAERLVDYLKAEH	inactive
Bs YwrO: nitroreductase from B. subtilis, SEQ ID NO: 4 (protein, listed as Bacillus subtilis) MKILVLAVHPHMETSVVNKAWAEELSKHDNITVRDLYKEYPDEAIDVAKEQQLCEEYDRIVFQFPLYWYSSPPLLKKWQDLVLTYGWAFGSEGNALHGKELMLAVSTGSEAEKYQAGGANHYSISELLKPFQATSNLIGMKYLPPYVFYGVNYAAAEDISHSAKRLAEYIQQPFV	inactive
